TGT: colonic 5-HT3 receptors (Cavia porcellus, UniProt O70212)
Construct: the distal colons (3-10 cm from the anus) were isolated and suspended in a Magnus tube filled with Krebs solution; from tissue; host or cells: isolated distal colon of male Hartley guinea pig
Sequence (O70212 20-490): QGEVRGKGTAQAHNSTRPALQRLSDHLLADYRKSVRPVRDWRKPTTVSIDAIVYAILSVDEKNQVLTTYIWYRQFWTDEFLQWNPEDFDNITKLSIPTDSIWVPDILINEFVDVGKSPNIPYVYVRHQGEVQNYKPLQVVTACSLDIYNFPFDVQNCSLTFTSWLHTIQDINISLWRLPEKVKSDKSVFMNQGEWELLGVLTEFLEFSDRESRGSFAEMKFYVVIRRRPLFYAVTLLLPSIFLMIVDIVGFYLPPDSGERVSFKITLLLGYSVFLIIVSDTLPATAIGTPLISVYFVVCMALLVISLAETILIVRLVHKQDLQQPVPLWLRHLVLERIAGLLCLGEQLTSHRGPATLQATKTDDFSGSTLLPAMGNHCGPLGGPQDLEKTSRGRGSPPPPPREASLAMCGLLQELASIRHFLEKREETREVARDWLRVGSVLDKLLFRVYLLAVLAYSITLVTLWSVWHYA
ASSAY PROTOCOL: Colonic 5-HT3 receptor antagonism: inhibition of 2-methylserotonin-induced contraction of isolated distal colon (Test 1)
Format: biochemical, guinea pigs
CONDITION: pA2, isolated guinea pig distal colon; contraction induced by 2-methylserotonin
MEASURED PARAMETER: Kb

Example entries and their recorded answers appear below.
Cc1[nH]cnc1CN1CCc2c(c3cccc4c3n2CCO4)C1=O [C] = > 10 nM
Cl.Cn1cc(C(=O)[C@@H]2CCc3nc[nH]c3C2)c2ccccc21 [YM-060, hydrochloride] = 3.98 nM

Next:
# return Kb for Cc1[nH]cnc1CN1CCc2c(c3cccc4c3n2CC4)C1=O [B] , test system: colonic 5-HT3 receptors (Cavia porcellus, UniProt O70212) > 10 nM

----------
TGT: colonic 5-HT3 receptors (Cavia porcellus, UniProt O70212)
Construct: the distal colons (3-10 cm from the anus) were isolated and suspended in a Magnus tube filled with Krebs solution; from tissue; host or cells: isolated distal colon of male Hartley guinea pig
ASSAY PROTOCOL: Colonic 5-HT3 receptor antagonism: inhibition of 2-methylserotonin-induced contraction of isolated distal colon (Test 1)
Assay type: biochemical, guinea pigs
CONDITION: pA2, isolated guinea pig distal colon; contraction induced by 2-methylserotonin
Where a name gives a salt, the structure may show the parent alone.
Kindly supply the reported Kb values for the records listed here.
One number for each entry, in nM.

Example entries and their recorded answers appear below.
Cc1[nH]cnc1CN1CCc2c(c3cccc4c3n2C(c2ccccc2)CC4)C1=O.Cl (stereo not drawn) [Compound 1, hydrochloride] = 0.398
Cc1[nH]cnc1CN1CCc2c(c3ccccc3n2C)C1=O.Cl [Allosetron hydrochloride] = 20
Cc1[nH]cnc1CN1CCc2c(c3cccc4c3n2CCC4)C1=O = 10

Next:
# return Kb for Cc1nccn1CC1CCc2c(c3ccccc3n2C)C1=O (stereo not drawn) [Ondansetron hydrochloride, hydrochloride dihydrate] , test system: colonic 5-HT3 receptors (Cavia porcellus, UniProt O70212) 251

----------
Kindly supply the reported M (×10^-9 Mole) values for the records listed here.
TGT: colonic 5-HT3 receptors (Cavia porcellus)
Construct: the distal colons (3-10 cm from the anus) were isolated and suspended in a Magnus tube filled with Krebs solution; from tissue; host or cells: isolated distal colon of male Hartley guinea pig
Sequence (O70212 20-490): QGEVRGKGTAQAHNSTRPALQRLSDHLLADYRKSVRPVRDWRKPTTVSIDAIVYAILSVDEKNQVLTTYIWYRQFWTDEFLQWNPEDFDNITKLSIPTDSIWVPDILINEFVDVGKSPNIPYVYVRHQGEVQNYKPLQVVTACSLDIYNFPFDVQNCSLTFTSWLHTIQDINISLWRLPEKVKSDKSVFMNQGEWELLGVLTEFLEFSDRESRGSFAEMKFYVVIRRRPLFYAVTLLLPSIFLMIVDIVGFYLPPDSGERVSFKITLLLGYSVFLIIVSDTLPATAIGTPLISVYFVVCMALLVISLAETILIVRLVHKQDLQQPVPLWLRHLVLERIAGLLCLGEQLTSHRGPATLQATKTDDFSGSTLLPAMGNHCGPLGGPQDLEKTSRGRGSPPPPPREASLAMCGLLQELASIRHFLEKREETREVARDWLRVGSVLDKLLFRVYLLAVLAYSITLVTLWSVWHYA
ASSAY PROTOCOL: Colonic 5-HT3 receptor antagonism: inhibition of 2-methylserotonin-induced contraction of isolated distal colon (Test 1)
Assay type: biochemical, guinea pigs
CONDITION: molar antagonist concentration corresponding to pA2; guinea pig distal colon, 2-methylserotonin

Cc1[nH]cnc1CN1CCc2c(c3ccccc3n2C)C1=O.Cl [Allosetron hydrochloride] = 21 ×10^-9 Mole
Cc1[nH]cnc1CN1CCc2c(c3cccc4c3n2CCCC4)C1=O [E] = >10 ×10^-9 Mole
Cc1[nH]cnc1CN1CCc2c(c3cccc4c3n2C(c2ccccc2)CC4)C1=O.Cl (centres unmarked) [Compound 1] = 0.41 ×10^-9 Mole
O=C1c2c(n3c4c(cccc24)CCC3)CCN1C1CN2CCC1CC2 (centres unmarked) [I] = >10 ×10^-9 Mole

Next:
Name the recorded M (×10^-9 Mole) of the molecule listed here: Cl.Cn1cc(C(=O)[C@@H]2CCc3nc[nH]c3C2)c2ccccc21 [YM-060] 4.5 ×10^-9 Mole
